# Assay notes: recombinant UMI read abundance after kanamycin selection (control-corrected) (log10(CPM+1)); higher = more efficient recombination; extreme values may be limits of the assay; sequences stand for … in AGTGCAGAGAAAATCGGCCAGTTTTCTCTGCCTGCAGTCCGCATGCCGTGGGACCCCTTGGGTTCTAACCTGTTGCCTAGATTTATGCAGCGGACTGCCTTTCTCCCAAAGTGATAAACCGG…AGGTTGGTTTCACT; site = the 11-nt donor;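 also: IS621 bridge recombinase in Escherichia coli cells against a fixed T5 target plasmid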
Reported recombinant UMI read abundance (log10) values for the following sequences.
Please reply with the number alone, leaving off any unit.

Some solved entries appear below for comparison.
> print(dat)
                             sequence.input                      attribute.measured  assay.result
1  CTTTACACATGGACCGGTTTTCCCGGTAATCCGTATTTGGG (site CTTTACACTCC)  recombinant UMI read abundance (log10)         0.147
2  CAAGCCACATGGACCGGTTTTCCCGGTAATCCGTATTTGGG (site CAAGTCACTCC)  recombinant UMI read abundance (log10)        0.0106
3  GTATGCTCATGGACCGGTTTTCCCGGTAATCCGTATTTGTA (site GTATGCCCTTA)  recombinant UMI read abundance (log10)           1.2
4  GAGGAACCATGGACCGGTTTTCCCGGTAATCCGTATTTGGA (site GAGGAACCTTC)  recombinant UMI read abundance (log10)       0.00548

Measured recombinant UMI read abundance (log10), CGATCATCATGGACCGGTTTTCCCGGTAATCCGTATTTGCT (site CGTTCATCTAT) : 0

The recorded recombinant UMI read abundance (log10) for TATCTTTCATGGACCGGTTTTCCCGGTAATCCGTATTTGAT (site TATCTTTCTAT) is 0

Looking up GCTACTGCATGGACCGGTTTTCCCGGTAATCCGTATTTGCC (site GCTACTGCTGA) , I found its recombinant UMI read abundance (log10) recorded as 0

GGCCACCCATGGACCGGTTTTCCCGGTAATCCGTATTTGTG (site GGCCACCCTAA) yielded recombinant UMI read abundance (log10) of 0.00884

# sequence CTACTACCATGGACCGGTTTTCCCGGTAATCCGTATTTGCT (site CTACTACCTAG) ; its recombinant UMI read abundance (log10) = 0.232

# recombinant UMI read abundance (log10) (sequence: CACTCCTCATGGACCGGTTTTCCCGGTAATCCGTATTTGCC (site CACTCCTCTGA) ) is 0.906

The reported recombinant UMI read abundance (log10) of the sequence AAGCCGCCATGGACCGGTTTTCCCGGTAATCCGTATTTGGC (site AAGCCGCCTGC) was 0

---

Below, each entry is listed alongside its reported recombinant UMI read abundance (log10).
# Assay notes: recombinant UMI read abundance after kanamycin selection (control-corrected) (log10(CPM+1)); higher = more efficient recombination; extreme values may be limits of the assay; sequences stand for … in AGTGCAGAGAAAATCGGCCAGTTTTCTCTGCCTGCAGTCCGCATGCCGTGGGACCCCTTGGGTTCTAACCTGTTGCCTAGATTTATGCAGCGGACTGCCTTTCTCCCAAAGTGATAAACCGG…AGGTTGGTTTCACT; site = the 11-nt donor

Previously resolved entries follow.
> print(dat)
                             sequence.input  assay.result
1  CGGGAGTCATGGACCGGTTTTCCCGGTAATCCGTATTTGCC (site CGGGTGTCTGG)             0
2  TCCTTGACATGGACCGGTTTTCCCGGTAATCCGTATTTGCT (site TTCTTGACTAG)             0
3  CCAGGACCATGGACCGGTTTTCCCGGTAATCCGTATTTGGG (site CGAGGACCTCC)             0
4  ATCTAGACATGGACCGGTTTTCCCGGTAATCCGTATTTGGG (site AACTAGACTCC)        0.0333
5  CCGATAGCATGGACCGGTTTTCCCGGTAATCCGTATTTGTG (site CCGATAGCTCA)        0.0444

So for AAGGGACCATGGACCGGTTTTCCCGGTAATCCGTATTTGGT (site AAGGGACCTAC) , the logged recombinant UMI read abundance (log10) turned out to be 0.00499

---

# Assay notes: recombinant UMI read abundance after kanamycin selection (control-corrected) (log10(CPM+1)); higher = more efficient recombination; extreme values may be limits of the assay; sequences stand for … in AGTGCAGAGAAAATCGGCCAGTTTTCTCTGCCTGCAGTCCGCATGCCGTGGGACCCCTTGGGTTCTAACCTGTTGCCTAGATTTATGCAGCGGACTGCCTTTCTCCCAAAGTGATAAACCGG…AGGTTGGTTTCACT; site = the 11-nt donor
Classification field: enter fulfilled for recombinant UMI read abundance (log10) values not below 0.006, not fulfilled for values below it.

Some entries whose results are on file:
> print(dat)
                             sequence.input          group
1  AATTATCCATGGACCGGTTTTCCCGGTAATCCGTATTTGGA (site AATTATACTTC)      fulfilled
2  GTATAGACATGGACCGGTTTTCCCGGTAATCCGTATTTGCC (site GGATAGACTGG)      fulfilled
3  CGGAATCCATGGACCGGTTTTCCCGGTAATCCGTATTTGTT (site GGGAATCCTAA)  not fulfilled
4  GCCGCGCCATGGACCGGTTTTCCCGGTAATCCGTATTTGTA (site GCCCCGCCTTA)  not fulfilled
5  AATTATGCATGGACCGGTTTTCCCGGTAATCCGTATTTGGT (site AATTATGCTGC)  not fulfilled

Query: Does recombinant UMI read abundance (log10) meet or surpass 0.006 for AGCTATACATGGACCGGTTTTCCCGGTAATCCGTATTTGAC (site ATCTATACTGT) ?
Result: fulfilled

Query: // inclusive: recombinant UMI read abundance (log10) at least 0.006? input: TTGAATACATGGACCGGTTTTCCCGGTAATCCGTATTTGCA (site TGGAATACTTG)
Result: not fulfilled

Query: Is reported recombinant UMI read abundance (log10) greater than or equal to 0.006 here: CAGTACACATGGACCGGTTTTCCCGGTAATCCGTATTTGCT (site CAGTACACTAG)
Result: fulfilled

Query: Record AAACGTCCATGGACCGGTTTTCCCGGTAATCCGTATTTGAT (site AAACGTCCTAT) ; criterion: recombinant UMI read abundance (log10) no lower than 0.006. Met?
Result: fulfilled

Query: # check: recombinant UMI read abundance (log10) of CGTTTGGCATGGACCGGTTTTCCCGGTAATCCGTATTTGCT (site GGTTTGGCTAG) is greater than or equal to 0.006
Result: not fulfilled

Query: Quick check, recombinant UMI read abundance (log10) >= 0.006? TAGATTACATGGACCGGTTTTCCCGGTAATCCGTATTTGCA (site TAGATTACTTG)
Result: fulfilled

Query: Please tell me: is the sequence CTAGAACCATGGACCGGTTTTCCCGGTAATCCGTATTTGAG (site CTAGAACCTCT) at or over 0.006 in terms of recombinant UMI read abundance (log10)?
Result: fulfilled

Query: Could you tell me if the measured recombinant UMI read abundance (log10) of AACCGTCCATGGACCGGTTTTCCCGGTAATCCGTATTTGAT (site ATCCGTCCTAT) reaches 0.006 or more?
Result: not fulfilled

Query: Does recombinant UMI read abundance (log10) meet or surpass 0.006 for AGGGTTTCATGGACCGGTTTTCCCGGTAATCCGTATTTGAA (site AGGGTTTCTTT) ?
Result: fulfilled

Query: For this sequence, is measured recombinant UMI read abundance (log10) 0.006 or higher? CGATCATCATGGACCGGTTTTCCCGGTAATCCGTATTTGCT (site CGAACACCTAG)
Result: not fulfilled

Query: Threshold query (recombinant UMI read abundance (log10) >= 0.006) on ACCTAGACATGGACCGGTTTTCCCGGTAATCCGTATTTGCG (site ACCTAGACTCG)
Result: fulfilled

Query: Reported recombinant UMI read abundance (log10) at or above 0.006? GAGGTAGCATGGACCGGTTTTCCCGGTAATCCGTATTTGAT (site GAGGTAGCTAT)
Result: fulfilled

Query: API: above_or_equal(metric=recombinant UMI read abundance (log10), cutoff=0.006) for item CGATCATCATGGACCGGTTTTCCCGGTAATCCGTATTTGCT (site CGTTGATCTAG)
Result: not fulfilled

Query: Hi team, for GTAGTCTCATGGACCGGTTTTCCCGGTAATCCGTATTTGCG (site GTAGTCTCTCG) , is the recorded recombinant UMI read abundance (log10) at or above 0.006?
Result: fulfilled

Query: Exam item: decide whether the reported recombinant UMI read abundance (log10) for GATGTTCCATGGACCGGTTTTCCCGGTAATCCGTATTTGGT (site GATGTTCCTAC) is at least 0.006.
Result: fulfilled

Query: Decide: recombinant UMI read abundance (log10) of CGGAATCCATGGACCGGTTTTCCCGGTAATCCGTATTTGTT (site CGGAATCCTAT) >= 0.006?
Result: not fulfilled

Where do these numbers come from? They come from the supplement of paper PMC11208160.
